Parameter 'readout' = pIC50; parameter 'system' = cGMP-specific 3',5'-cyclic phosphodiesterase (Homo sapiens, UniProt O76074).
pIC50: −log10 of the molar value.
measured endpoint: pIC50

// worked examples, pIC50 included
cpd_smiles=CCCn1c(=O)n(C)c(=O)c2[nH]c(-c3cc(S(=O)(=O)N4CCN(C)CC4)ccc3OCC)nc21 measured_endpoint=pIC50 value_observed=7.00
cpd_smiles=CCOc1ccc(S(=O)(=O)N2CCN(C)CC2)cc1-c1nc2c(=O)n(C)c(=O)n(CC(C)(C)C)c2[nH]1 measured_endpoint=pIC50 value_observed=7.04
cpd_smiles=CCOc1ccc(S(=O)(=O)N2CCN(C)CC2)cc1-c1nc2c(=O)n(C)c(=O)n(Cc3ccc(OC)cc3)c2[nH]1 measured_endpoint=pIC50 value_observed=7.23

(1) COCCOc1ccccc1-c1nc2c([nH]1)c(=O)n(C)c(=O)n2CC(C)C
(2) C=CCCn1c(=O)n(C)c(=O)c2nc(-c3cc(S(=O)(=O)N4CCN(C)CC4)ccc3OCC)[nH]c21
(3) CCCOc1ccc(S(=O)(=O)N2CCN(C(=O)N(C)C)CC2)cc1-c1nc2c(=O)n(C)c(=O)n(CC(C)C)c2[nH]1
(4) CCOc1ccc(S(=O)(=O)N2CCN(CCO)CC2)cc1-c1nc2c([nH]1)c(=O)n(C)c(=O)n2CC(C)C
Sort low-to-high on pIC50, please. Form field (ranking): labels in requested order.
1, 2, 4, 3
(1: 5.82, 2: 7.00, 4: 7.72, 3: 8.46)

###

Assay: Bioavailability
Type: ADME, organism-based
Settings: rat, in vivo; read-out: BAV
measured endpoint: bioavailability (%)

compound=CCCOc1ccc(S(=O)(=O)N2CCN(C(=O)N(C)C)CC2)cc1-c1nc2c(=O)n(C)c(=O)n(CC(C)C)c2[nH]1 uom=% value_observed=0
compound=CCOc1ccc(S(=O)(=O)N2CCN(C)CC2)cc1-c1nc2c([nH]1)c(=O)n(C)c(=O)n2CC(C)C uom=% value_observed=11

(A) CCCOc1ccc(S(=O)(=O)N2CCC(CCO)CC2)cc1-c1nc2c([nH]1)c(=O)n(C)c(=O)n2CC(C)C
(B) CCOc1ccc(S(=O)(=O)N2CCN(C)CC2)cc1-c1nc2c(=O)n(C)c(=O)n(CC(C)CC)c2[nH]1 (centres undefined)
So which one has the bigger bioavailability here, A or B ? Pick one; state its label.
B
(B: 11%, A: 0%)

###

Assay: In vitro microsome metabolism clearance in human was determined
Assay type: ADME
Conditions: microsomes
measured endpoint: microsomal CLint (µL/min/mg)

(P) CCCOc1ccc(S(=O)(=O)N2CCN(C(=O)N(C)C)CC2)cc1-c1nc2c(=O)n(C)c(=O)n(CC(C)C)c2[nH]1
(Q) CCOc1ccc(S(=O)(=O)N2CCN(C)CC2)cc1-c1nc2c(=O)n(C)c(=O)n(CC(C)CC)c2[nH]1 (configuration not stated)
So which one has the bigger microsomal CLint here, P or Q ? Pick one; state its label.
Q

###

Test: Kinetic solubility at pH 7.4, ca
Format: physicochemical
Conditions: buffer
measured endpoint: solubility kinetic (µg/mL)

(P) CCCOc1ccc(S(=O)(=O)N2CCN(C(=O)N(C)C)CC2)cc1-c1nc2c(=O)n(C)c(=O)n(CC(C)C)c2[nH]1
(Q) CCCOc1ccc(S(=O)(=O)N2CCC(CCO)CC2)cc1-c1nc2c([nH]1)c(=O)n(C)c(=O)n2CC(C)C
Hi, I'm comparing two records. Which one has the lower solubility kinetic, P or Q ? Pick one; state its label.
Q
(Q: 5 µg/mL, P: 25 µg/mL)

###

Assay: Ratio of IC50 against human platelet PDE5 to that against bovine retina PDE6
measured endpoint: Ratio

// worked examples, Ratio included
cpd_smiles=CCCOc1ccc(S(=O)(=O)N(C)CCN(C)C)cc1-c1nc2c(=O)n(C)c(=O)n(CC(C)C)c2[nH]1 measured_endpoint=Ratio value_observed=72
cpd_smiles=CCCOc1ccc(S(=O)(=O)N2CCC(CCO)CC2)cc1-c1nc2c(=O)n(C)c(=O)n(CC(C)C)c2[nH]1 measured_endpoint=Ratio value_observed=5.5
cpd_smiles=CCCCOc1ccccc1-c1nc2c(=O)n(C)c(=O)n(CC(C)C)c2[nH]1 measured_endpoint=Ratio value_observed=3.2
cpd_smiles=CCCOc1ccc(S(=O)(=O)N2CCN(CCN(C)C)CC2)cc1-c1nc2c(=O)n(C)c(=O)n(CC(C)C)c2[nH]1 measured_endpoint=Ratio value_observed=1.5
cpd_smiles=CCCOc1ccc(S(=O)(=O)N2CCN(CCOC)CC2)cc1-c1nc2c(=O)n(C)c(=O)n(CC(C)C)c2[nH]1 measured_endpoint=Ratio value_observed=7.5

(I) CC(C)COc1ccccc1-c1nc2c(=O)n(C)c(=O)n(CC(C)C)c2[nH]1
(II) CCCOc1ccc(S(N)(=O)=O)cc1-c1nc2c(=O)n(C)c(=O)n(CC(C)C)c2[nH]1
(III) CCOc1ccc(S(=O)(=O)N2CCN(C)CC2)cc1-c1nc2c(=O)n(C)c(=O)n(CC(C)C)c2[nH]1
Rank the 3 compounds: largest Ratio first, smallest last. Form field (ranking): labels in requested order.
III, II, I
(III: 4.9, II: 3, I: 0.7)

###

Test: Log D value at pH 7.4
Assay type: physicochemical
Conditions: buffer
measured endpoint: logD
Lab note: jot down the number only; don't add units.

Please look up its logD: `CCOc1ccc(S(=O)(=O)N2CCN(C)CC2)cc1-c1nc2c([nH]1)c(=O)n(C)c(=O)n2CC(C)C`
3.15

###

Test: Kinetic solubility at pH 5
Type: physicochemical
Conditions: caco-2, pH 5
measured endpoint: solubility kinetic

Please look up its solubility kinetic: CCOc1ccc(S(=O)(=O)N2CCN(C)CC2)cc1-c1nc2c(=O)n(C)c(=O)n(CC(C)CC)c2[nH]1 (stereo unspecified)
> 200 µg/mL

###

Target: Phosphodiesterase 6
Assay: Inhibitory concentration against bovine retina phosphodiesterase 6 activity
Format: tissue-based
measured endpoint: IC50 (nM)

// worked examples, IC50 included
molecule=CCOc1ccc(S(=O)(=O)N2CCN(CCO)CC2)cc1-c1nc2c(=O)n(C)c(=O)n(CC(C)C)c2[nH]1 value_observed=68
molecule=CCOc1ccccc1-c1nc2c(=O)n(C)c(=O)n(CC(C)C)c2[nH]1 value_observed=227
molecule=CCOc1ccc(S(=O)(=O)N2CCN(C)CC2)cc1-c1nc2c(=O)n(C)c(=O)n(CC(C)(C)C)c2[nH]1 value_observed=2380
molecule=CCCn1c(=O)n(C)c(=O)c2[nH]c(-c3cc(S(=O)(=O)N4CCN(C)CC4)ccc3OCC)nc21 value_observed=345
molecule=CCOc1ccc(S(=O)(=O)N2CCN(C)CC2)cc1-c1nc2c(=O)n(C)c(=O)n(CC3CC3)c2[nH]1 value_observed=217

(I) CCCOc1ccc(S(=O)(=O)N2CCN(C)CC2)cc1-c1nc2c(=O)n(C)c(=O)n(CC(C)C)c2[nH]1
(II) CCCOc1ccc(S(=O)(=O)N(C)CCN(C)C)cc1-c1nc2c(=O)n(C)c(=O)n(CC(C)C)c2[nH]1
(III) CCCOc1ccc(S(=O)(=O)N2CCN(C(=O)N(C)C)CC2)cc1-c1nc2c(=O)n(C)c(=O)n(CC(C)C)c2[nH]1
(IV) CCCOc1ccc(S(=O)(=O)N2CCN(CC)CC2)cc1-c1nc2c(=O)n(C)c(=O)n(CC(C)C)c2[nH]1
Sort low-to-high on IC50, please. Form field (ranking): labels in requested order.
IV, I, III, II

(P) C=CCCn1c(=O)n(C)c(=O)c2nc(-c3cc(S(=O)(=O)N4CCN(C)CC4)ccc3OCC)[nH]c21
(Q) CCOc1ccc(S(=O)(=O)N2CCN(CC)CC2)cc1-c1nc2c(=O)n(C)c(=O)n(CC(C)C)c2[nH]1
(R) CC(C)COc1ccccc1-c1nc2c(=O)n(C)c(=O)n(CC(C)C)c2[nH]1
Rank the 3 molecules: largest IC50 first, smallest last. Form field (ranking): labels in requested order.
P, Q, R

(a) CC(C)COc1ccc(S(=O)(=O)N2CCN(C)CC2)cc1-c1nc2c(=O)n(C)c(=O)n(CC(C)C)c2[nH]1
(b) CCOc1ccc(S(=O)(=O)N2CCN(CCN(C)C)CC2)cc1-c1nc2c(=O)n(C)c(=O)n(CC(C)C)c2[nH]1
So which one has the bigger IC50 here, a or b ? Pick one; state its label.
b
(b: 146 nM, a: 102 nM)

(a) CCOc1ccc(S(=O)(=O)N2CCN(C)CC2)cc1-c1nc2c(=O)n(C)c(=O)n(CC(C)CC)c2[nH]1 (configuration not stated)
(b) CC(C)Cn1c(=O)n(C)c(=O)c2[nH]c(-c3ccccc3OC(C)C)nc21
So which one has the bigger IC50 here, a or b ? Pick one; state its label.
b

###

Assay: Ratio of IC50 against human platelet PDE5 to that against bovine retina PDE6
measured endpoint: Ratio

// worked examples, Ratio included
cpd_smiles=CCCOc1ccc(S(=O)(=O)N(CC)CCN(C)C)cc1-c1nc2c(=O)n(C)c(=O)n(CC(C)C)c2[nH]1 measured_endpoint=Ratio value_observed=22
cpd_smiles=CC(C)Cn1c(=O)n(C)c(=O)c2[nH]c(-c3ccccc3OC(C)C)nc21 measured_endpoint=Ratio value_observed=2.8

(I) CC(C)Cn1c(=O)n(C)c(=O)c2[nH]c(-c3cc(S(=O)(=O)N4CCN(C)CC4)ccc3OC(C)C)nc21
(II) CCOc1ccccc1-c1nc2c(=O)n(C)c(=O)n(CC(C)C)c2[nH]1
So which one has the bigger Ratio here, I or II ? Pick one; state its label.
I
